- Tested on: leukemia stem cells (LSCs) CD34+CD38low or negCD123+ from AML patient samples
- PROCEDURE TEXT: High throughput functional drug screen (72-hour exposure, CellTiter Glo viability) on FACS sorted LSCs
- Format: cell-based, human
- MEASUREMENT CONTEXT: aggregate viability data of patient samples, in vitro 72 h
MEASUREMENT TYPE: Effectiveness vs. LSCs (AUCstem mean < mitomycin C AUCblast mean, p<0.1)

>  <MOLECULAR STRING>
Cc1ccc([N+](=O)[O-])cc1S(=O)(=O)N(C)/N=C/c1cnc2ccc(Br)cn12

>  <OBSERVED VALUE>
effective

$$$$
>  <MOLECULAR STRING>
CO[C@H]1C(=O)[C@]2(C)[C@@H](OC)C[C@H]3OC[C@@]3(OC(C)=O)[C@H]2[C@H](OC(=O)c2ccccc2)[C@]2(O)C[C@H](OC(=O)[C@H](O)[C@@H](NC(=O)OC(C)(C)C)c3ccccc3)C(C)=C1C2(C)C

>  <OBSERVED VALUE>
effective

$$$$
>  <MOLECULAR STRING>
COCCn1c2c([n+](Cc3cnccn3)c1C)C(=O)c1ccccc1C2=O

>  <OBSERVED VALUE>
effective

$$$$

---

- Tested on: leukemia stem cells (LSCs) CD34+CD38low or negCD123+ from AML patient samples
- PROCEDURE TEXT: High throughput functional drug screen (72-hour exposure, CellTiter Glo viability) on FACS sorted LSCs
- Type: cell-based, human
- Parameters: unit not given here
- MEASUREMENT CONTEXT: mean area under dose response curve across patient samples; 72-hour exposure, 8 concentrations
Residues, ends and D or L forms follow the SMILES beside them. *: point of attachment. Cbz = O=C(OCc1ccccc1)*
MEASUREMENT TYPE: AUC Stem Mean

Consider the following illustrative entries.
>  <MOLECULE>
COCCn1c2c([n+](Cc3cnccn3)c1C)C(=O)c1ccccc1C2=O [YM-155]

>  <EXPERIMENTAL TARGET>
leukemia stem cells (LSCs) CD34+CD38low or negCD123+ from AML patient samples

>  <MEASUREMENT TYPE>
AUC Stem Mean

>  <OBSERVED VALUE>
0.00089

$$$$
>  <MOLECULE>
CNC(=O)c1cc(Oc2ccc(NC(=O)Nc3ccc(Cl)c(C(F)(F)F)c3)cc2)ccn1 [Sorafenib]

>  <EXPERIMENTAL TARGET>
leukemia stem cells (LSCs) CD34+CD38low or negCD123+ from AML patient samples

>  <MEASUREMENT TYPE>
AUC Stem Mean

>  <OBSERVED VALUE>
0.0045

$$$$
>  <MOLECULE>
CCc1cnn2c(NCc3ccc[n+]([O-])c3)cc(N3CCCC[C@H]3CCO)nc12 [Dinaciclib]

>  <EXPERIMENTAL TARGET>
leukemia stem cells (LSCs) CD34+CD38low or negCD123+ from AML patient samples

>  <MEASUREMENT TYPE>
AUC Stem Mean

>  <OBSERVED VALUE>
0.048

$$$$

Could you report AUC Stem Mean for every entry in the following list?
1. CN1CCC(CNc2ccc3ncc(-c4cccc(OC(F)(F)F)c4)n3n2)CC1 [SGI-1776]
2. CC1(COc2ccc3c(c2)ncn3-c2ccc3cccc(N4CCC(N)CC4)c3n2)COC1 [Crenolanib]
3. CC(C)C[C@@H](C=O)NC(=O)[C@H](CC(C)C)NC(=O)[C@H](CC(C)C)NC(=O)OCc1ccccc1 [MG-132] (Cbz-Leu-Leu-Leu-aldehyde)
4. Cc1ccc(C(=O)Nc2ccc(CN3CCN(C)CC3)c(C(F)(F)F)c2)cc1C#Cc1cnc2cccnn12 [Ponatinib]

RESULT:
[0.00076, 0.0054, 0.0039, 0.00085]

---

Assign AUC Stem Mean to each entry below.
- System: leukemia stem cells (LSCs) CD34+CD38low or negCD123+ from AML patient samples
- PROCEDURE TEXT: High throughput functional drug screen (72-hour exposure, CellTiter Glo viability) on FACS sorted LSCs
- Format: cell-based, human
- MEASUREMENT CONTEXT: mean area under dose response curve across patient samples; 72-hour exposure, 8 concentrations

Here are 3 compounds together with their reported answers.
>  <COMPOUND>
C/C=C1\NC(=O)[C@H]2CSSCC/C=C/[C@H](CC(=O)N[C@H](C(C)C)C(=O)N2)OC(=O)[C@H](C(C)C)NC1=O [Romidepsin]

>  <OBSERVED VALUE>
0.00041

$$$$
>  <COMPOUND>
Cc1ccc([N+](=O)[O-])cc1S(=O)(=O)N(C)/N=C/c1cnc2ccc(Br)cn12 [PIK-75]

>  <OBSERVED VALUE>
0.0041

$$$$
>  <COMPOUND>
CO[C@H]1C(=O)[C@]2(C)[C@@H](OC)C[C@H]3OC[C@@]3(OC(C)=O)[C@H]2[C@H](OC(=O)c2ccccc2)[C@]2(O)C[C@H](OC(=O)[C@H](O)[C@@H](NC(=O)OC(C)(C)C)c3ccccc3)C(C)=C1C2(C)C [Cabazitaxel]

>  <OBSERVED VALUE>
0.0031

$$$$

Provide the reported AUC Stem Mean of each entry below, same order.
1. Nc1ccccc1NC(=O)c1ccc(CNc2nccc(-c3cccnc3)n2)cc1 [Mocetinostat]
2. CCN(CC)CCNC(=O)c1c(C)[nH]c(/C=C2\C(=O)Nc3ccc(F)cc32)c1C [Sunitinib]

RESULT:
1. 0.0029
2. 0.00039

Origin of values: patent US20210285933A1
